- Tested on: TFEB
- Assay Protocol: TFEB nuclear translocation assay, HeLa wt cells
- Format: cell-based
- Settings: Homo sapiens, HeLa, 2 h, 2 hrs compound treatment, Table 1 does not say HeLa wt or TRPML1 KO
Reported Endpoint: AC50

{"Compound": "CC(c1cccc(F)c1N1CCC(CN2C3CCC2COC3)CC1)S(=O)(=O)c1ccc2c(c1)CC(C)(C)O2 (centres unmarked) [Compound A-886]", "Study Target": "TFEB", "Value Reported": "≤ 2000 nM"}
{"Compound": "CC(c1cccc(F)c1N1CCC(CN2C3COCC2C3)CC1)S(=O)(=O)c1ccc(S(=O)(=O)N(C)C)cc1 (centres unmarked) [Compound A-869]", "Study Target": "TFEB", "Value Reported": "2010 to 8000 nM"}
{"Compound": "CC(c1cccnc1N1CCC2(CC1)COC(C)(C)C2)S(=O)(=O)c1ccc(S(=O)(=O)N(C)C)cc1 (centres unmarked) [Compound A-775]", "Study Target": "TFEB", "Value Reported": "8010 to 9990 nM"}
{"Compound": "COCC1(C)CCN(c2ccccc2NS(=O)(=O)c2ccc(S(=O)(=O)N3CCC3)cc2)CC1 [Compound A-736]", "Study Target": "TFEB", "Value Reported": "≤ 2000 nM"}
{"Compound": "O=S(=O)(Nc1ccccc1N1CCN(c2ccc(F)cc2F)CC1)c1ccc(S(=O)(=O)C(F)(F)F)cc1 [Compound A-174]", "Study Target": "TFEB", "Value Reported": "2010 to 8000 nM"}
{"Compound": "C[C@@H]1CN(CC2(F)CCN(c3c(F)cccc3NS(=O)(=O)c3ccc(S(=O)(=O)N(C)C)cc3)CC2)C[C@H](C)O1 [Compound A-794]", "Study Target": "TFEB", "Value Reported": "≤ 2000 nM"}
{"Compound": "CC(C)(C)C(=O)N1CCN(c2ccccc2NS(=O)(=O)c2ccc(C(F)(F)C(F)(F)F)cc2)CC1 [Compound A-537]", "Study Target": "TFEB", "Value Reported": "8010 to 9990 nM"}
{"Compound": "C[C@@H]1CN(C2CCN(c3c(F)cccc3NS(=O)(=O)c3ccc(S(=O)(=O)N(C)C)cc3)CC2)C[C@H](C)O1 [Compound A-868]", "Study Target": "TFEB", "Value Reported": "≤ 2000 nM"}
{"Compound": "CCC(C)c1ccc(S(=O)(=O)Nc2ccccc2N2CCN(C(=O)C(C)(C)C)CC2)cc1 (centres unmarked) [Compound A-513]", "Study Target": "TFEB", "Value Reported": "2010 to 8000 nM"}
{"Compound": "CC1(C)CC2(CCN(c3ccccc3NS(=O)(=O)c3cnn(C4CCC4)c3)CC2)CO1 [Compound A-666]", "Study Target": "TFEB", "Value Reported": "2010 to 8000 nM"}
{"Compound": "CN(C)S(=O)(=O)c1ccc(S(=O)(=O)Nc2ccccc2N2CCN(C(=O)C(C)(C)F)CC2)cc1 [Compound A-432]", "Study Target": "TFEB", "Value Reported": "2010 to 8000 nM"}
{"Compound": "C[C@H]1CN(CC2CCN(c3c(F)cccc3NS(=O)(=O)c3ccc(S(=O)(=O)N(C)C)cc3)CC2)C[C@H](C)O1 (racemic) [Compound A-843]", "Study Target": "TFEB", "Value Reported": "≤ 2000 nM"}
{"Compound": "COc1ccc(S(=O)(=O)Nc2ccccc2N2CCC(Oc3ccc(F)cc3F)C2)cc1 (centres unmarked) [Compound A-202]", "Study Target": "TFEB", "Value Reported": "≥ 10000 nM"}
{"Compound": "CNCC1(c2ccc(F)cc2F)CCN(c2ccccc2NS(=O)(=O)c2ccc(S(=O)(=O)N(C)C)cc2)CC1 [Compound A-218]", "Study Target": "TFEB", "Value Reported": "≤ 2000 nM"}
{"Compound": "CN(C)S(=O)(=O)c1ccc(NS(=O)(=O)c2ccccc2N2CCC(c3ccc(Cl)cc3F)CC2)cc1 [Compound A-108]", "Study Target": "TFEB", "Value Reported": "≤ 2000 nM"}
{"Compound": "Cn1cnc(S(=O)(=O)Nc2ccccc2N2CCN(c3ccc(Cl)cc3F)CC2)c1 [Compound A-2]", "Study Target": "TFEB", "Value Reported": "≤ 2000 nM"}
{"Compound": "CC(c1ccccc1N1CCN(C(=O)OCc2ccccc2)CC1)S(=O)(=O)c1ccc(S(=O)(=O)N(C)C)cc1 (centres unmarked) [Compound A-556]", "Study Target": "TFEB", "Value Reported": "≤ 2000 nM"}
{"Compound": "CN(C)S(=O)(=O)c1ccc(S(=O)(=O)Nc2ccccc2N2CCC(C#N)(c3ccc(F)cc3F)CC2)cc1 [Compound A-175]", "Study Target": "TFEB", "Value Reported": "≤ 2000 nM"}
{"Compound": "CN(C)S(=O)(=O)c1ccc(C(=O)Nc2ccccc2N2CCN(c3ccc(Cl)cc3F)CC2)cc1 [Compound A-11]", "Study Target": "TFEB", "Value Reported": "≤ 2000 nM"}
{"Compound": "CN(C)S(=O)(=O)c1ccc(C(Nc2cc(Cl)ccc2N2CCOCC2)C(F)(F)F)cc1 (centres unmarked) [Compound A-356]", "Study Target": "TFEB", "Value Reported": "2010 to 8000 nM"}
{"Compound": "COc1ccc(S(=O)(=O)Nc2ccccc2N2CCC(c3ncc(Cl)cc3F)CC2)cc1 [Compound A-147]", "Study Target": "TFEB", "Value Reported": "2010 to 8000 nM"}
{"Compound": "CN(C)S(=O)(=O)c1ccc(S(=O)(=O)Nc2ccccc2N2CCN(C(=O)C3(C)CCCCO3)CC2)cc1 (centres unmarked) [Compound A-448]", "Study Target": "TFEB", "Value Reported": "≤ 2000 nM"}
{"Compound": "CN(C)S(=O)(=O)c1ccc(S(=O)(=O)Nc2ccccc2N2CCC(COCC(F)F)CC2)cc1 [Compound A-730]", "Study Target": "TFEB", "Value Reported": "≤ 2000 nM"}
{"Compound": "C[C@@H]1CN(C(=O)C2CCN(c3ccccc3NS(=O)(=O)c3ccc(S(=O)(=O)N(C)C)cc3)CC2)C[C@H](C)O1 [Compound A-754]", "Study Target": "TFEB", "Value Reported": "2010 to 8000 nM"}
{"Compound": "CN(C)CC1(c2ccc(F)cc2F)CCN(c2ccccc2NS(=O)(=O)c2ccc(S(=O)(=O)N(C)C)cc2)CC1 [Compound A-221]", "Study Target": "TFEB", "Value Reported": "≤ 2000 nM"}
{"Compound": "COCC1(C)CCN(c2ccc(F)cc2NS(=O)(=O)c2ccc(S(=O)(=O)N(C)C)cc2)CC1 [Compound A-695]", "Study Target": "TFEB", "Value Reported": "≤ 2000 nM"}
{"Compound": "C[C@H]1CN(CC2CCN(c3c(F)cccc3NS(=O)(=O)c3ccc(S(=O)(=O)N(C)C)cc3)CC2)[C@@H](C)CO1 [Compound A-862]", "Study Target": "TFEB", "Value Reported": "≤ 2000 nM"}
{"Compound": "Cc1ccc(S(=O)(=O)Nc2ccccc2N2CCC3(CC2)COC(C)(C)C3)cc1 [Compound A-662]", "Study Target": "TFEB", "Value Reported": "≤ 2000 nM"}
{"Compound": "CN(C)S(=O)(=O)c1ccc(S(=O)(=O)Nc2ccccc2N2CCC(O)(C3CC3)CC2)cc1 [Compound A-420]", "Study Target": "TFEB", "Value Reported": "2010 to 8000 nM"}

* * *

The following molecules are shown together with reported AC50 values.
- Tested on: TFEB
- Assay Protocol: TFEB nuclear translocation assay, HeLa wt cells
- Type: cell-based
- Settings: Homo sapiens, HeLa, 2 h, 2 hrs compound treatment, Table 1 does not say HeLa wt or TRPML1 KO

{"Molecule": "CC(c1cccc(F)c1N1CCCCC1)[S+]([O-])c1ccc(S(=O)(=O)C(F)F)cc1 (stereo not shown)", "AC50": "2.01 to 8 µM"}
{"Molecule": "C[C@@H]1COC[C@@H](C)N1CC1CN(c2c(F)cccc2NS(=O)(=O)c2ccc(S(=O)(=O)N(C)C)cc2)C1 (stereo in doubt) [Compound A-873]", "AC50": "≥ 10 µM"}
{"Molecule": "CN(C)S(=O)(=O)c1ccc(S(=O)(=O)Nc2cccc(F)c2N2CCC(CN3CC4C(C3)C4(F)F)CC2)cc1 (stereo not shown)", "AC50": "≤ 2 µM"}
{"Molecule": "CCN(CC)CC1CCN(c2ccccc2NS(=O)(=O)c2ccc(S(=O)(=O)N(C)C)cc2)CC1", "AC50": "2.01 to 8 µM"}
{"Molecule": "O=S(=O)(c1ccc2c(c1)CCC2)N1Cc2cccc(N3CCOCC3)c2C1", "AC50": "≥ 10 µM"}
{"Molecule": "O=S(=O)(Nc1ccccc1N1CCC(c2c(F)cccc2F)CC1)c1ccc(S(=O)(=O)N2CCOCC2)cc1", "AC50": "≤ 2 µM"}
{"Molecule": "Cc1ccc(F)c(CS(=O)(=O)Nc2ccccc2N2CCC3(CC2)COC(C)(C)C3)c1", "AC50": "≤ 2 µM"}

Where do these numbers come from? They come from patent US20230104936A1.
